Measured values drawn from ChEMBL document CHEMBL3120114 for this set.

assay: Acute toxicity in po dosed Kunming mouse assessed as survival measured after 24 hrs; format: organism-based; conditions: in vivo
quantity.kind: LD50 at 24 h

>>> print(df.to_string())
                                chem_smiles  quantity_kind        result
0  Cc1c(OCCCCN2CCC(c3noc4cc(F)ccc34)CC2)ccc2c3c(c(=O)oc12)CCC3   LD50 at 24 h  > 2000 mg/kg

---

pKi: −log10 of the molar value.
Please consider the recorded pKi for UniProt P14842 in what follows.
Sequence (P14842 whole entry): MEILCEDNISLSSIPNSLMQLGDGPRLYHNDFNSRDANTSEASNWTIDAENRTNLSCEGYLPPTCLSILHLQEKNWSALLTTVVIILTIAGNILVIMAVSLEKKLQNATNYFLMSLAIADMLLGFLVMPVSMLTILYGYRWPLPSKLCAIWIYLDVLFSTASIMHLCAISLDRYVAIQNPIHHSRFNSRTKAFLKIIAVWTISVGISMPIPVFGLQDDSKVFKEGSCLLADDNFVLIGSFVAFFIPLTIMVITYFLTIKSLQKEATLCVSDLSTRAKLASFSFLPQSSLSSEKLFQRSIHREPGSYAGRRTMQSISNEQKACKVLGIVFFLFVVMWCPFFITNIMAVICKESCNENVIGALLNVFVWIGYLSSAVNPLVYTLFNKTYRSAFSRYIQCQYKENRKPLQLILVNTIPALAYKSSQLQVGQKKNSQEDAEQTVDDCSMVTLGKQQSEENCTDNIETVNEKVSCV
quantity.kind: pKi

In [3]: df
Out[3]:
                                chem_smiles  readout_number
0  COc1cccc(N2CCN(CCCCOc3ccc4c5c(c(=O)oc4c3)CCC5)CC2)c1            6.05
1  COc1ccccc1N1CCN(CCCOc2ccc3c4c(c(=O)oc3c2)CCC4)CC1            6.21
2  O=c1oc2cc(OCCCCN3CCN(c4ccc(F)cc4)CC3)ccc2c2c1CCC2            7.78
3  Cc1c(OCCCCN2CCC(c3noc4cc(F)ccc34)CC2)ccc2c3c(c(=O)oc12)CCC3            8.66
4  O=c1oc2cc(OCCCCN3CCN(c4nsc5ccccc45)CC3)ccc2c2c1CCC2            6.19
5  O=c1oc2cc(OCCCCN3CCC(c4noc5cc(F)ccc45)CC3)c(Cl)cc2c2c1CCC2            6.60

---

Measurement record for 5-hydroxytryptamine receptor 1A (Rattus norvegicus); quantity recorded: Ki.
quantity.kind: Ki

In [3]: df
Out[3]:
                                chem_smiles                         system_under_test   result
0  O=c1oc2cc(OCCCN3CCC(c4noc5cc(F)ccc45)CC3)ccc2c2ccccc12  5-hydroxytryptamine receptor 1A (Rattus norvegicus)  > 10 µM
1  O=c1oc2cc(OCCCCN3CCC(c4noc5cc(F)ccc45)CC3)ccc2c2ccccc12  5-hydroxytryptamine receptor 1A (Rattus norvegicus)  > 10 µM
2  O=c1oc2cc(OCCCCN3CCC(c4noc5cc(F)ccc45)CC3)ccc2c2c1CCCC2  5-hydroxytryptamine receptor 1A (Rattus norvegicus)  > 10 µM

---

target: D(2) dopamine receptor (Rattus norvegicus, UniProt P61169); assay: Displacement of [3H]spiperone from dopamine D2 receptor in Sprague-Dawley rat striatum homogenate after 30 mins by liquid scintillation counting
Sequence (P61169 whole entry): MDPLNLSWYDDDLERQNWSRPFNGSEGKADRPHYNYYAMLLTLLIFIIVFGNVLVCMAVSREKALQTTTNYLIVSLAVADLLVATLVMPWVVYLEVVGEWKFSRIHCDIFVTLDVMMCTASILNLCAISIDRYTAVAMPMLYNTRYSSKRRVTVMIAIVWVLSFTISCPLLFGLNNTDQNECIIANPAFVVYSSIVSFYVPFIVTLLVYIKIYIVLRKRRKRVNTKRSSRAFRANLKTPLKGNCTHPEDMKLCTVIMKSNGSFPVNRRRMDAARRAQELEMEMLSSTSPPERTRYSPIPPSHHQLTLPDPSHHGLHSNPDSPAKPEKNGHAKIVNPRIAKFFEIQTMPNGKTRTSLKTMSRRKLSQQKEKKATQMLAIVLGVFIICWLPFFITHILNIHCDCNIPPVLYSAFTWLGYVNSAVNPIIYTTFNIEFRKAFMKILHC
Reported Ki values are given for each entry in this list.
quantity.kind: Ki (µM)

>>> print(df.to_string())
                                 chem_smiles                         system_under_test  reading_unit  sign_qualifier  readout_number
 0  O=c1oc2cc(OCCCCN3CCN(c4cccc(Cl)c4Cl)CC3)ccc2c2c1CCC2  D(2) dopamine receptor (Rattus norvegicus, UniProt P61169)            µM               =             1.9
 1  O=c1oc2cc(OCCCCN3CCC(c4nc5ccccc5s4)CC3)ccc2c2c1CCC2  D(2) dopamine receptor (Rattus norvegicus, UniProt P61169)            µM               >              10
 2  O=c1oc2cc(OCCCCN3CCN(c4ccc(F)cc4)CC3)ccc2c2c1CCC2  D(2) dopamine receptor (Rattus norvegicus, UniProt P61169)            µM               >              10
 3  Cc1cccc(N2CCN(CCCCOc3ccc4c5c(c(=O)oc4c3)CCC5)CC2)c1C  D(2) dopamine receptor (Rattus norvegicus, UniProt P61169)            µM               =             1.6
 4  COc1cccc(N2CCN(CCCCOc3ccc4c5c(c(=O)oc4c3)CCC5)CC2)c1  D(2) dopamine receptor (Rattus norvegicus, UniProt P61169)            µM               =            1.06
 5  O=c1oc2cc(OCCCCN3CCC(c4noc5cc(F)ccc45)CC3)ccc2c2c1CCC2  D(2) dopamine receptor (Rattus norvegicus, UniProt P61169)            µM               =          0.0244
 6  O=c1oc2cc(OCCCN3CCC(c4noc5cc(F)ccc45)CC3)ccc2c2ccccc12  D(2) dopamine receptor (Rattus norvegicus, UniProt P61169)            µM               >              10
 7  COc1ccccc1N1CCN(CCCOc2ccc3c4c(c(=O)oc3c2)CCC4)CC1  D(2) dopamine receptor (Rattus norvegicus, UniProt P61169)            µM               >              10
 8  O=c1oc2cc(OCCCCN3CCN(c4cccc(C(F)(F)F)c4)CC3)ccc2c2c1CCC2  D(2) dopamine receptor (Rattus norvegicus, UniProt P61169)            µM               >              10
 9  O=c1oc2cc(OCCCCN3CCC(c4noc5cc(F)ccc45)CC3)ccc2c2c1CCCC2  D(2) dopamine receptor (Rattus norvegicus, UniProt P61169)            µM               =           0.624
10  COc1ccccc1N1CCN(CCCCOc2ccc3c4c(c(=O)oc3c2)CCCC4)CC1  D(2) dopamine receptor (Rattus norvegicus, UniProt P61169)            µM               =           0.757
11  O=c1oc2cc(OCCCCN3CCC(c4noc5cc(F)ccc45)CC3)c(Cl)cc2c2c1CCC2  D(2) dopamine receptor (Rattus norvegicus, UniProt P61169)            µM               =           0.146
12  O=c1oc2cc(OCCCCN3CCN(c4ccccn4)CC3)ccc2c2c1CCC2  D(2) dopamine receptor (Rattus norvegicus, UniProt P61169)            µM               >              10
